Source: patent US20240084003A1

Target Or System: T1, human CD22-ECD-His protein (human, UniProt P20273 20-687)
T1 construct: Made in house in HEK293E; also called hCD22-ECD-His; recombinant human CD22-ECD His protein; not shown: His tag
T1 sequence: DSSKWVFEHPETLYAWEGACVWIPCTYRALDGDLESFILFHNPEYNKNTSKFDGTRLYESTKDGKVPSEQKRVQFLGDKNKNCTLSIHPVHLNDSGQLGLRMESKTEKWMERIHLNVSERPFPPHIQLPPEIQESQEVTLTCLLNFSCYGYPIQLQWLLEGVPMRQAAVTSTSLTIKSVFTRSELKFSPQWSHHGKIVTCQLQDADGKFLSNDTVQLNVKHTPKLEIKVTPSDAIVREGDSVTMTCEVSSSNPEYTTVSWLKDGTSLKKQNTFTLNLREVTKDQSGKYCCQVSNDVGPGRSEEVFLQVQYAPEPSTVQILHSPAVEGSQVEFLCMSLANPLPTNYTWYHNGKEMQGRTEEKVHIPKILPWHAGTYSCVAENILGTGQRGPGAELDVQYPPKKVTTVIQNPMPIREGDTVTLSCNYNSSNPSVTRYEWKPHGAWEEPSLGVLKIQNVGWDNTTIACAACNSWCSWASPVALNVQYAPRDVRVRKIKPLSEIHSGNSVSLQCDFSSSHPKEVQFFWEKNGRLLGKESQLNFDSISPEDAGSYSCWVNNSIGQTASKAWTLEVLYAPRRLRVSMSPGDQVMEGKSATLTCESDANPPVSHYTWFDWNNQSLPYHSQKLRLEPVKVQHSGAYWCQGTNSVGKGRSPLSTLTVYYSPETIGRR
Protocol Text: ELISA, human CD22-ECD-His coated
Catalogue of EC50 (read off the curve) values
Quantity Measured: EC50 (read off the curve)

INSERT INTO results (binder, quantity_measured, val) VALUES
  ('F1.192.1 (antibody, human IgG1, kappa, V domains shown, Human-murine chimeric IgG1, kappa) VH: AVQLQQSGVELVRPGASVKLSCTGSDFNIKEDYIHWVKQRPEQGLEWIGWIDPENGDTEYASKFQGKATITADTSSNTAYLQLSSLTSEDTAVYYCATYGSLDYWGQGTTLTVSS VL: DIKMTQSPSSMYAFLGERVTITCKASQGINSFLTWFQQKPGKSPKTLIYRANRLVDGVPSRFSGSGSGQDYSLTISSLEYEDVGIYYCLQYDEFPRTFGGGTKLEIKR', 'EC50 (read off the curve)', '~0.05 nM'),
  ('F1.17.1 (antibody, human IgG1, kappa, V domains shown, Human-murine chimeric IgG1, kappa) VH: QVQLKESGPGLVAPSQSLSITCTVSGFSLSRYTVHWVRQPPGKGLEWLGMIWGGGSTDYNSALKSRLSISKDNSKSQVFLKMNSLQTDDTAMYYCARPHDFDAGGFAYWGQGTLVTVSA VL: QIVLTQSPAILSTSPGEKVTMTCSASSRVNYMYWYQQKPGSSPRLLIYDTSNLASGVPVRFSGSGSGTSYSLTISRMEAEDAATYYCQQWTSYPLTFGAGTKLELKR', 'EC50 (read off the curve)', '~0.03 nM'),
  ('F2.70.2 (antibody, human IgG1, lambda, V domains shown, Human-murine chimeric IgG1, lambda) VH: EVQLVESGGGLVKPGGSLKLSCAASGFTFSDYGMNWFRQAPEKGLEWVAYISRGSHTIYYADTVKGRFTISRDNAKNTLFLQMTSLRSNDTAMYYCVRMAGYYAMDYWGQGTSVTVSS VL: QLVLTQSSSASFSLGASAKLTCTLSSQHSSYIIEWYQQQPLKPPKYVMELKKDGSHSTGDGIPDRFSGSSSGADRYLSISNIQPEDEAIYICGVGDTIKEQFVYVFGGGTKVTVLG', 'EC50 (read off the curve)', '~0.03 nM');
